All figures here come from patent US20220177587A1.

TARGET: human PD-L1 (human) (UniProt Q9NZQ7)
Sequence (Q9NZQ7 19-290): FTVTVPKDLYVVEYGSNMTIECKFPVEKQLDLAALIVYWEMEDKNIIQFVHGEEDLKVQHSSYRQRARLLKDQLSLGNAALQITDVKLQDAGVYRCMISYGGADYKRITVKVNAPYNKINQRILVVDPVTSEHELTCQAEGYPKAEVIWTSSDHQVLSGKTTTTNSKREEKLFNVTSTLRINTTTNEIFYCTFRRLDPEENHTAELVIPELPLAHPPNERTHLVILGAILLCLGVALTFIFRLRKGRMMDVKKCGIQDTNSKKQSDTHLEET
TEST: flow cytometry, CHO cells stably expressing PD-L1
Reported MFI at 33.3 nM by item:
REPORTED ENDPOINT: MFI at 33.3 nM (MFI)

# BINDER, REPORTED ENDPOINT, RESULT UNIT, ASSAY VALUE
measured = [
    ("CD80 E35D/D46V/M47L/V68M/L85Q/E88D IgV-Fc, GS(G4S)5 linker (Fc fusion) VIHVTKEVKEVATLSCGHNVSVEELAQTRIYWQKDKKMVLTMMSGVLNIWPEYKNRTIFDITNNLSIMILALRPSDEGTYECVVQKYDKDAFKREHLAEVTLSVKADGSGGGGSGGGGSGGGGSGGGGSGGGGS", "MFI at 33.3 nM", "MFI", 22400),
    ("variant CD80 IgV-Fc H18Y/A26E/V68M/D90G (Fc fusion) VIHVTKEVKEVATLSCGYNVSVEELEQTRIYWQKEKKMVLTMMSGDMNIWPEYKNRTIFDITNNLSIMILALRPSDEGTYECVVLKYEKGAFKREHLAEVTLSVKAD", "MFI at 33.3 nM", "MFI", 12800),
    ("variant CD80 IgV-Fc (inert) H18Y/A26P/E35D/M47I/V68M/A71G (Fc fusion) VIHVTKEVKEVATLSCGYNVSVEELPQTRIYWQKDKKMVLTMMSGDINIWPEYKNRTIFDITNNLSIMILGLRPSDEGTYECVVLKYEKDAFKREHLAEVTLSVKAD", "MFI at 33.3 nM", "MFI", 54500),
]
